Please provide measured Cell-Induced Excitation Wavelength Shift (nm) for the entries that follow.
Tested on: CHO cells
Assay: Cell-induced absorption spectral shift of indicator AM esters, absence vs presence of CHO cells
Type: cell-based
Conditions: absence vs presence of CHO cells
One number for each entry, in nm.

Recorded results for 3 molecules are shown here.
CC(=O)OCOC(=O)CN(CC(=O)OCOC(C)=O)c1ccc(C)cc1OCCOc1cc2c(cc1N(CC(=O)OCOC(C)=O)CC(=O)OCOC(C)=O)C(=O)OC21c2cc(Cl)c(OC(C)=O)cc2C(C)(C)c2cc(OC(C)=O)c(Cl)cc21    278
CC(=O)OCOC(=O)CN(CC(=O)OCOC(C)=O)c1ccc(C)cc1OCCOc1cc(-c2c3cc(F)c(=O)cc-3oc3cc(OCOC(C)=O)c(F)cc23)ccc1N(CC(=O)OCOC(C)=O)CC(=O)OCOC(C)=O [Fluo-4 AM, reference compound]    38
CC(=O)OCOC(=O)CN(CC(=O)OCOC(C)=O)c1ccc(C)cc1OCCOc1cc(-c2c3cc(Cl)c(=O)cc-3oc3cc(OCOC(C)=O)c(Cl)cc23)ccc1N(CC(=O)OCOC(C)=O)CC(=O)OCOC(C)=O [Fluo-3 AM, reference compound]    36

Attention now turns to another entry.
Prompt: Quick check: Cell-Induced Excitation Wavelength Shift (nm) of `CC(=O)OCOC(=O)CN(CC(=O)OCOC(C)=O)c1ccc(C)cc1OCCOc1cc2c(cc1N(CC(=O)OCOC(C)=O)CC(=O)OCOC(C)=O)C(=O)OC21c2cc(F)c(OC(C)=O)cc2C(C)(C)c2cc(OC(C)=O)c(F)cc21` ?
Completion: 277

###

Test: Spectral property comparison (excitation and emission wavelength) of indicator acids
Format: physicochemical
experimentalReadout: Emission Wavelength (nm)
Field: value (include unit after the number)

Recorded results for 2 molecules are shown here.
Cc1ccc(N(CC(=O)O)CC(=O)O)c(OCCOc2cc(C3=C4C=C(F)C(=O)C=C4C(C)(C)c4cc(O)c(F)cc43)c(C(=O)O)cc2N(CC(=O)O)CC(=O)O)c1    582 nm
Cc1ccc(N(CC(=O)O)CC(=O)O)c(OCCOc2cc(C3=C4C=C(Cl)C(=O)C=C4C(C)(C)c4cc(O)c(Cl)cc43)c(C(=O)O)cc2N(CC(=O)O)CC(=O)O)c1    584 nm

Answer for every listed entry: what is its Emission Wavelength (nm)? The entries follow.
1. Cc1ccc(N(CC(=O)O)CC(=O)O)c(OCCOc2cc(-c3c4cc(Cl)c(=O)cc-4oc4cc(O)c(Cl)cc34)ccc2N(CC(=O)O)CC(=O)O)c1 [Fluo-3, reference compound]
2. Cc1ccc(N(CC(=O)O)CC(=O)O)c(OCCOc2cc(-c3c4cc(F)c(=O)cc-4oc4cc(O)c(F)cc34)ccc2N(CC(=O)O)CC(=O)O)c1 [Fluo-4, reference compound]

Completion:
526 nm
515 nm

###

System: CHO cells
Test: Cell-induced absorption spectral shift of indicator AM esters, absence vs presence of CHO cells
Assay type: cell-based
experimentalReadout: Residual absorption of dye AM at the maximum excitation of dye acid
Field: value (include unit after the number)

Recorded results for 3 compounds are shown here.
CC(=O)OCOC(=O)CN(CC(=O)OCOC(C)=O)c1ccc(C)cc1OCCOc1cc2c(cc1N(CC(=O)OCOC(C)=O)CC(=O)OCOC(C)=O)C(=O)OC21c2cc(F)c(OC(C)=O)cc2C(C)(C)c2cc(OC(C)=O)c(F)cc21 [Compound 85]    0%
CC(=O)OCOC(=O)CN(CC(=O)OCOC(C)=O)c1ccc(C)cc1OCCOc1cc(-c2c3cc(F)c(=O)cc-3oc3cc(OCOC(C)=O)c(F)cc23)ccc1N(CC(=O)OCOC(C)=O)CC(=O)OCOC(C)=O [Fluo-4 AM, reference compound]    7.8%
CC(=O)OCOC(=O)CN(CC(=O)OCOC(C)=O)c1ccc(C)cc1OCCOc1cc(-c2c3cc(Cl)c(=O)cc-3oc3cc(OCOC(C)=O)c(Cl)cc23)ccc1N(CC(=O)OCOC(C)=O)CC(=O)OCOC(C)=O [Fluo-3 AM, reference compound]    7.6%

Attention now turns to another entry.
Prompt: Quick check: Residual absorption of dye AM at the maximum excitation of dye acid of CC(=O)OCOC(=O)CN(CC(=O)OCOC(C)=O)c1ccc(C)cc1OCCOc1cc2c(cc1N(CC(=O)OCOC(C)=O)CC(=O)OCOC(C)=O)C(=O)OC21c2cc(Cl)c(OC(C)=O)cc2C(C)(C)c2cc(OC(C)=O)c(Cl)cc21 [Compound 16] ?
Completion: 0%

###

Test: Spectral property comparison (excitation and emission wavelength) of indicator acids
Format: physicochemical
experimentalReadout: Excitation Wavelength (nm)
One number for each entry, in nm.

Cc1ccc(N(CC(=O)O)CC(=O)O)c(OCCOc2cc(C3=C4C=C(F)C(=O)C=C4C(C)(C)c4cc(O)c(F)cc43)c(C(=O)O)cc2N(CC(=O)O)CC(=O)O)c1 [Compound 79]    554
Cc1ccc(N(CC(=O)O)CC(=O)O)c(OCCOc2cc(-c3c4cc(F)c(=O)cc-4oc4cc(O)c(F)cc34)ccc2N(CC(=O)O)CC(=O)O)c1 [Fluo-4, reference compound]    493
Cc1ccc(N(CC(=O)O)CC(=O)O)c(OCCOc2cc(C3=C4C=C(Cl)C(=O)C=C4C(C)(C)c4cc(O)c(Cl)cc43)c(C(=O)O)cc2N(CC(=O)O)CC(=O)O)c1 [Compound 11]    558

Prompt: Quick check: Excitation Wavelength (nm) of Cc1ccc(N(CC(=O)O)CC(=O)O)c(OCCOc2cc(-c3c4cc(Cl)c(=O)cc-4oc4cc(O)c(Cl)cc34)ccc2N(CC(=O)O)CC(=O)O)c1 [Fluo-3, reference compound] ?
Completion: 504
